- System: gene editing with dCas9
- assayComment: Screen of 322 new SSAP proteins, gene editing activity with dCas9 (Table 5)
- Format: cell-based
- conditionNotes: normalized
valueType: dCas9 with SSAP activity (normalized)
Provide a numeric answer; units are not to be included.

- molecule: "SSAP_272: SEQ ID NO: 441; Clostridium cadaveris (protein, listed as Clostridium cadaveris) ATNSSLKNQLSKKENVTIGNTMQGLLNNPKMKKRFEEILDKKAPQYMSSILNLYNGDTSLQKCEPMSVLSSSMIAATMDLPVDKNLGYAWIVPYKNKAQFQMGYKGYIQLALRTGQYKHINAIEIHEGELVNWNPLTEELEIDFTKKESDKIIGYAGYFELLNGFKKSTYWTKTQIENHRKKFSKSDYGWNKDFDAMAIKTVIRNMLSKWGILSIEMQNAYTADENIIKDSFIDDSENVSANIEDLVEADYTVNQDSLESKEEFEGTPLE"
  dCas9 with SSAP activity (normalized): 0.407

Okay, next one:
Bench note: what dCas9 with SSAP activity (normalized) did SSAP_262: SEQ ID NO: 431; YqaK Schleiferilactobacillus shenzhenensis LY-73 (protein, listed as Schleiferilactobacillus shenzhenensis) SAVSESKDLQHVDQLSVLNSAMTAASLNLPINQNLGFFYLVPYKGIAQAQMGYKGYIQLAQRSGQYQRLNAIPVYADEFGSWNPLTEELDYTPHFEDRKASDKPVGYVGFFKLANGFEKTVYWSRKQIEAHRDRFSKSSKSSASPWNTDFDAMALKTVLRNLITKWGPMTTDIQRANDADEGDYKNDLSTDTSEPKDVTPGASLEQFLGETDQQQKPATKPAPKKKAEEAKPNDLKPDVTHDPNEHTEQTSLSDDDLPFD show?
−1.417
